# measurement target: OsSMF1 (Oryza sativa, UniProt Q6ZLB0 1-436)
# Sequence: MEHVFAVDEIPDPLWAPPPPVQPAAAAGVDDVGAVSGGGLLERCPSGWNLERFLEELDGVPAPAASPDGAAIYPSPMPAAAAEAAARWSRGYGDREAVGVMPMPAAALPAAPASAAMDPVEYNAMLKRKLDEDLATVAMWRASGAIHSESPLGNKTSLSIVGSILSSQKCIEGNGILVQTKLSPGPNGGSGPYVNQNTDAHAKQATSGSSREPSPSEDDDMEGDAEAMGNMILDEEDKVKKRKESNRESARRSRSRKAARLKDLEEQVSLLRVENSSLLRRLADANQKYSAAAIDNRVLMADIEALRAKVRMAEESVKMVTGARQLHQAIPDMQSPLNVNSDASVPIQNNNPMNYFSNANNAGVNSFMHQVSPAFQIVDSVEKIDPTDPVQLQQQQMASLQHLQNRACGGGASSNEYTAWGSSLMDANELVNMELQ
# measurement notes: protein-binding microarray (RPBM); PBS, 2% BSA, 51.3 ng/ul salmon testes DNA, 50 uM zinc acetate, 200 nM TF, 25 C, 1 h; high values mean tight binding
# cond: protein: recombinant; tags: N-terminal polyhistidine and DsRed monomer fusion (pET32a); chain copies: 2; label: CyDye5-dUTP incorporated in the synthesized complementary strand; 3' TTTTT single-stranded linker to array surface; dsDNA, one strand shown
Whole data set: some 39,000 sequences, median “fluorescence intensity (a.u.)” near 4,300, cut for the highest 2% near 39,000. Shown is part of a subset that was picked to be rich in the highest values.
observation type: binding signal

Measured binding signal, GGATGATGTGACTTAATAACAGAAGAGAGAAATAATATTACGGAGTCACCTAGTGCAG : 40600 fluorescence intensity (a.u.)

Measured binding signal, AACACACTAGTAATACGAATCTGAATATGGTACTAGGATACGGAGTCACCTAGTGCAG : 64200 fluorescence intensity (a.u.)

Measured binding signal, CGGACGTCCCACACGCTTGGTGTCACGACGAGAGGAACCTCGGAGTCACCTAGTGCAG : 3450 fluorescence intensity (a.u.)

Measured binding signal, ATAAAGTCCTTATCGGACACTAAACGCACTTTCCTAAAGACGGAGTCACCTAGTGCAG : 39200 fluorescence intensity (a.u.)

Measured binding signal, TGATTATTTGTGAAATAAAATGAGATAAAATGTGATTTTACGGAGTCACCTAGTGCAG : 28600 fluorescence intensity (a.u.)

Measured binding signal, TTCAGGATGAATGGTACGTAACATGATAGGACACTATTCACGGAGTCACCTAGTGCAG : 48700 fluorescence intensity (a.u.)

Measured binding signal, TGCAGCGCCCTCAGCGTTTTGCGCTGCCGTGGCCATCACGCGGAGTCACCTAGTGCAG : 4300 fluorescence intensity (a.u.)

Measured binding signal, CGCAGCAAGCGTCACGTCACCAACTGTTTGCTCCAACTGTCGGAGTCACCTAGTGCAG : 9370 fluorescence intensity (a.u.)

Measured binding signal, ATGCTATTATATAAGAGAAAATATAATGATGCTGGCCGTGCGGAGTCACCTAGTGCAG : 3240 fluorescence intensity (a.u.)

Measured binding signal, CTGTTTCAGCACCACTGAGTTCGCAGCAAATGACACAAGGCGGAGTCACCTAGTGCAG : 3340 fluorescence intensity (a.u.)

Measured binding signal, TTCCAACACTAGGATGGTATATGAACCACCAGGATACAAACGGAGTCACCTAGTGCAG : 41800 fluorescence intensity (a.u.)

Measured binding signal, CGTCGTCGCCGCCGCCGCCCTCTGCGTCGACGCTGCGGCACGGAGTCACCTAGTGCAG : 3220 fluorescence intensity (a.u.)

Measured binding signal, CCACAAACCAAACCAACCCAAGATATCCTGATGAACCAAACGGAGTCACCTAGTGCAG : 35300 fluorescence intensity (a.u.)

Measured binding signal, CCGGATATGTTCTCGTAGTTTATATACGTTCATGATGACACGGAGTCACCTAGTGCAG : 3450 fluorescence intensity (a.u.)

Measured binding signal, AAACGAATCTAGGAATATATGTGACACATCATAGTACTACCGGAGTCACCTAGTGCAG : 4370 fluorescence intensity (a.u.)

Measured binding signal, TCACATCCGAGCTGAGCTCCTGACACAGTGACACTACTGGCGGAGTCACCTAGTGCAG : 4310 fluorescence intensity (a.u.)

Measured binding signal, TGATTGTGACACTAGCACGACGCACTTTCCTCTATATACACGGAGTCACCTAGTGCAG : 3630 fluorescence intensity (a.u.)

Measured binding signal, GAAAATTTGAGCAAAATTTAGTTGAATTTGAACAAATATTCGGAGTCACCTAGTGCAG : 6670 fluorescence intensity (a.u.)

Measured binding signal, GGCAAATCGGTAATTGCCATGTCACAAGAGTGGCAAATAGCGGAGTCACCTAGTGCAG : 8900 fluorescence intensity (a.u.)

====

# measurement target: OsSMF1 (Oryza sativa, UniProt Q6ZLB0 1-436)
# Sequence: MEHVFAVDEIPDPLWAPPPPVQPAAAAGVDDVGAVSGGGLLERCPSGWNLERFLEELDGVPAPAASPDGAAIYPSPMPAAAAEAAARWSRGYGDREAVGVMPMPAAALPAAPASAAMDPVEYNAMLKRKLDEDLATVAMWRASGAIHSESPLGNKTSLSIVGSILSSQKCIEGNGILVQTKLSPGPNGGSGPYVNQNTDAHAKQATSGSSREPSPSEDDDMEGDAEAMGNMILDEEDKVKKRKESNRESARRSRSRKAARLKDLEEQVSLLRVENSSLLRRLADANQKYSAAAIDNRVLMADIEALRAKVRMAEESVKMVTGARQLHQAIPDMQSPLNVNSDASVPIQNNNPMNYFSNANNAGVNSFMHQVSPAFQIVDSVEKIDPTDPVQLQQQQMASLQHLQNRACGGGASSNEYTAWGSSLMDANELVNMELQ
# measurement notes: protein-binding microarray (RPBM); PBS, 2% BSA, 51.3 ng/ul salmon testes DNA, 50 uM zinc acetate, 200 nM TF, 25 C, 1 h; high values mean tight binding
# cond: protein: recombinant; tags: N-terminal polyhistidine and DsRed monomer fusion (pET32a); chain copies: 2; label: CyDye5-dUTP incorporated in the synthesized complementary strand; 3' TTTTT single-stranded linker to array surface; dsDNA, one strand shown
The full ranking holds about 39,000 sequences; the median of “fluorescence intensity (a.u.)” is about 4,300, and the highest 2% start at about 39,000. This is one part of a sample in which the highest values are shown more often than they occur.
observation type: binding signal

Measured binding signal, AGCTTGTGTACCCAGGAGATCTACATACTTCGCTACGTCACGGAGTCACCTAGTGCAG : 4570 fluorescence intensity (a.u.)

Measured binding signal, CGTCCGTGCGAATGATTGCATCTGCGCGAGCGACGCCGTTCGGAGTCACCTAGTGCAG : 3430 fluorescence intensity (a.u.)

Measured binding signal, CCGTCGACTCTGTGCCACGTCCTGTTGCTCGTCGGATTCCCGGAGTCACCTAGTGCAG : 14000 fluorescence intensity (a.u.)

Measured binding signal, GCGCTTGCGCCTGACCGCCGCGTGACGACATGTTGTCACCCGGAGTCACCTAGTGCAG : 6800 fluorescence intensity (a.u.)

Measured binding signal, GACCAAACCTCCAATTAACAAGGTAGTTTAACACACATCACGGAGTCACCTAGTGCAG : 16100 fluorescence intensity (a.u.)

Measured binding signal, ACACATGCTTCAAGTGGCTAAGAGGGCATCCTCCCTTTTACGGAGTCACCTAGTGCAG : 16000 fluorescence intensity (a.u.)

Measured binding signal, GAACGACCCGAACTTATGACTCATTTATGGTTTGTTTCTCCGGAGTCACCTAGTGCAG : 8680 fluorescence intensity (a.u.)

Measured binding signal, TGGGCGAGGAAGATATGAGTGTGAAAGGATGGAGGGCCCACGGAGTCACCTAGTGCAG : 32900 fluorescence intensity (a.u.)

Measured binding signal, CGTGATCAATTCGCCTCATGCTGGCGTGACGCGGACCGAGCGGAGTCACCTAGTGCAG : 6720 fluorescence intensity (a.u.)
